What TGI was measured for each of the following?
System: EKVX NSCLC
Assay: NCI tumour cell line growth inhibition, 48 h

Asked: Recorded TGI for O=S(=O)(Cc1ccc(Cl)cc1Cl)c1ccc(Cl)cc1 , please?
Given back: > 100 µM

Asked: Recorded TGI for O=C(Nc1nc(C23CC4CC(CC(C4)C2)C3)cs1)c1c(O)c2ccccc2[nH]c1=O , please?
Given back: > 100 µM

Asked: Recorded TGI for COC(=O)c1cc2c3c(cc(N(C)C)c2[nH]1)N(C(=O)c1cc2cc(OC)c(OC)c(OC)c2[nH]1)CC3CCl (stereo not given) , please?
Given back: 2.79 µM

Asked: Recorded TGI for Nc1ccc2nc(NCc3ccc(F)cc3)cnc2c1 , please?
Given back: > 100 µM

Asked: Recorded TGI for CC1=NNC(=O)C1C1CC(c2c[nH]c3ccccc23)=NNC1=S (stereo not given) , please?
Given back: > 100 µM
